TARGET OR SYSTEM: Acetylcholinesterase (Homo sapiens, UniProt P22303); note: assay procedure not described here
Sequence (P22303 whole entry): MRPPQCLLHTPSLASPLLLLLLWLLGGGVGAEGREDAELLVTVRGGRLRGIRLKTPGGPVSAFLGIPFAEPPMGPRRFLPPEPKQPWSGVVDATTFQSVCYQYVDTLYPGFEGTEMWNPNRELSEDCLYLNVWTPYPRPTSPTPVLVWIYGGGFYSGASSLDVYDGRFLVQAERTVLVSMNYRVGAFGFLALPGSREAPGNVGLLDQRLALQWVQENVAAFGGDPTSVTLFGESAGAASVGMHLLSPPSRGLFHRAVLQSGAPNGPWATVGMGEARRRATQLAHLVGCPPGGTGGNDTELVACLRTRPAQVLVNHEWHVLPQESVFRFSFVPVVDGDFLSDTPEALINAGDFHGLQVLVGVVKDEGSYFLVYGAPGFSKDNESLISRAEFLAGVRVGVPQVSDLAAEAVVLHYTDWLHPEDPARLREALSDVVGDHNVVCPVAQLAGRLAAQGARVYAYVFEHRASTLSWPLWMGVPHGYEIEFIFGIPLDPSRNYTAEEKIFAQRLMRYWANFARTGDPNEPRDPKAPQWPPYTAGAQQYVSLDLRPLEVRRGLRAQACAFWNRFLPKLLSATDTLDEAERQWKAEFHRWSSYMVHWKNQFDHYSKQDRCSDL
Type: functional

MOLECULE | AC50
CCOc1cc([C@@H](CS(C)(=O)=O)N2C(=O)c3cccc(NC(C)=O)c3C2=O)ccc1OC | > 30 µM
Clc1ccc(Cn2c(CN3CCCC3)nc3ccccc32)cc1 [CLEMIZOLE] | > 30 µM
CC(C)(O/N=C(\C(=O)N[C@@H]1C(=O)N2C(C(=O)[O-])=C(C[n+]3ccccc3)CS[C@H]12)c1csc(N)n1)C(=O)O [CEFTAZIDIME] | > 300 µM
Cc1onc(-c2c(F)cccc2Cl)c1C(=O)N[C@@H]1C(=O)N2[C@@H]1SC(C)(C)[C@@H]2C(=O)O [FLOXACILLIN] | > 30 µM
S=P(N1CC1)(N1CC1)N1CC1 [THIOTEPA] | > 30 µM
Cc1nnc(SCC2=C(C(=O)O)N3C(=O)[C@@H](NC(=O)Cn4cnnn4)[C@H]3SC2)s1 [CEFAZOLIN] | > 300 µM
